B1: Hairpin Ribozyme (parent)
chain: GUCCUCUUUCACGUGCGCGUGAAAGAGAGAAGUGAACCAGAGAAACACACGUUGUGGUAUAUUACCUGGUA

Variants of: B1
Test: self-cleavage, relative activity (ratio to wild type); higher = more cleavage; co-transcriptional
reported-endpoint: self-cleavage
Form: value (number only, do not type unit).

{"mutation-descriptor": "G51A A59U", "self-cleavage": 0.178}

Per the records, this variant ( A11G G25A ) has self-cleavage equal to 0.43

Per the records, this variant ( U8G C10A ) has self-cleavage equal to 0.725

Per the records, this variant ( A31G U70A ) has self-cleavage equal to 0.509

Per the records, this variant ( U9A C12A ) has self-cleavage equal to 0.377

Per the records, this variant ( G29U U55A ) has self-cleavage equal to 0.0925

Per the records, this variant ( U8G A39U ) has self-cleavage equal to 0.288

Per the records, this variant ( C4G C48A ) has self-cleavage equal to 0.151

Per the records, this variant ( A22U A59C ) has self-cleavage equal to 0.17

Per the records, this variant ( A23C A59U ) has self-cleavage equal to 0.174

Per the records, this variant ( C48G A61U ) has self-cleavage equal to 0.0929
